# System: TDF;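 further: TDF denotes transformed human dermal fibroblasts of mesenchymal origin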
# test.name: cell number relative to DMSO (% of DMSO); higher = more cells (less growth inhibition / toxicity)
# experimental.context: concentration: 10 µM; 24 h
measure: cell number
Numbers only.

// solved cases for cell number follow
molecule	system	measure	reported.result
COc1cc2c(CCNC(C)=O)c[nH]c2cc1Cl [6-Chloromelatonin]	TDF	cell number	106
CC1=NC(=NNc2ccc(C(=O)[O-])cc2)C(COP(=O)([O-])[O-])=C(C=O)C1=O.[Na+].[Na+].[Na+]	TDF	cell number	103
Cl.c1ccc2nc(C3=NCCN3)ccc2c1 [BU224 hydrochloride]	TDF	cell number	110
O=C(c1ccc(OCCN2CCCCC2)cc1)c1c(-c2ccc(O)cc2)sc2cc(O)ccc12 [Raloxifene]	TDF	cell number	105
CS(=O)(=O)O.Cc1c(O)cccc1C(=O)NC(CSc1ccccc1)C(O)CN1CC2CCCCC2CC1C(=O)NC(C)(C)C (stereo not drawn) [Nelfinavir mesylate]	TDF	cell number	112
C=CCc1ccccc1OCC(O)CNC(C)C.Cl (stereo not drawn) [Alprenolol hydrochloride]	TDF	cell number	91

Give cell number for each of the items listed below.
1. CCCCCCC=CCCCCCCCCC(=O)O [10(Z)-Heptadecenoic acid]
2. Cl.Cl.OCCN1CCN(CCCN2c3ccccc3C=Cc3ccccc32)CC1

Response line:
[95.4, 98.8]
